Biological target: Topoisomerase IV (Staphylococcus aureus, UniProt P0C1S7+P0C1U9)
Sequence (P0C1U9 whole entry): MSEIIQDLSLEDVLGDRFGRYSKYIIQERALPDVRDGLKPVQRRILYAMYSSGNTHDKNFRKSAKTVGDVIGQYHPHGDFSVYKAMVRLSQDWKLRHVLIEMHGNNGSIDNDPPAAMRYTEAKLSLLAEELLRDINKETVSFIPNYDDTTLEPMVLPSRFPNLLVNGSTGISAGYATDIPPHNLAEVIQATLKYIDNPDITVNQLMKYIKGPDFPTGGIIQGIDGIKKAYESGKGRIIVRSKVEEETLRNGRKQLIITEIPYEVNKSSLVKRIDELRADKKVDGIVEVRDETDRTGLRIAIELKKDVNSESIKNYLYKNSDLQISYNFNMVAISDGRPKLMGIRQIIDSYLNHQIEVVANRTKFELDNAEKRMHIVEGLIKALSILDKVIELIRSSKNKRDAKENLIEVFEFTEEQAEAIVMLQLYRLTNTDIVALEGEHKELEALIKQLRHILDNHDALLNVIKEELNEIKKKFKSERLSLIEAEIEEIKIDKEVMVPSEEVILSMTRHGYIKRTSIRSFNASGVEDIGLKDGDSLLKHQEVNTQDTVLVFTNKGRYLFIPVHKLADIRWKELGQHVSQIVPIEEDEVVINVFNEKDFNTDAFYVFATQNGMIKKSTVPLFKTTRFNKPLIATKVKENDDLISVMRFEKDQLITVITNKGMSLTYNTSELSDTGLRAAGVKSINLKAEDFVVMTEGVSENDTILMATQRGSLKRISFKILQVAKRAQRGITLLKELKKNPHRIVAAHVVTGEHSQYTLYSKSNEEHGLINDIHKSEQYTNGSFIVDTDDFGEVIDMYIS
Sequence (P0C1S7 whole entry): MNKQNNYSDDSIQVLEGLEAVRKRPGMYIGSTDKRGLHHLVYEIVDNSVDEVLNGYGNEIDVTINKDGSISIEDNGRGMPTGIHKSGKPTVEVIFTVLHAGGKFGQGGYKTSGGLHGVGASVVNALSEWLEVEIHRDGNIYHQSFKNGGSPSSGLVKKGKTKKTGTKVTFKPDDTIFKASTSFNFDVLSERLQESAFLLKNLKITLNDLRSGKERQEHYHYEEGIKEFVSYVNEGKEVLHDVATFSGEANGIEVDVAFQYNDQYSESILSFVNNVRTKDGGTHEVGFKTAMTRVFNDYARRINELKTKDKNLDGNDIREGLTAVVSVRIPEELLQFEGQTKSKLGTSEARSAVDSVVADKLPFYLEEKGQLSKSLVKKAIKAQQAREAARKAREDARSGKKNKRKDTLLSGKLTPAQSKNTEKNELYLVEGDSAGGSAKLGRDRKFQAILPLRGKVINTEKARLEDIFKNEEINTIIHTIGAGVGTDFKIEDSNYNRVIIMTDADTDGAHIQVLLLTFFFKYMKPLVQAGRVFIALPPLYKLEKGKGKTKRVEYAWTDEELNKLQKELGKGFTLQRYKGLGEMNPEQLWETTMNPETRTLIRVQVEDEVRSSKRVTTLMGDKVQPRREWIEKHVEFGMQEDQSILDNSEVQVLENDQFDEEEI
Test: Inhibition of Staphylococcus aureus topoisomerase 4 assessed as reduction in decatenation using kDNA as substrate incubated for 30 mins by fluorimetric assay
Format: protein-complex assay
quantityMeasured: IC50 (nM)
Give bare numbers, in nM.

Sample records with IC50:
{"columns": ["compound", "IC50, nM"],
 "data": [
  ["NS(=O)(=O)c1ccc(NC(=O)CN2CCN(c3cc4c(cc3F)c(=O)c(C(=O)O)cn4C3CC3)CC2)cc1", 3770],
  ["NC(N)=NS(=O)(=O)c1ccc(/N=N/N2CCN(c3cc4c(cc3F)c(=O)c(C(=O)O)cn4C3CC3)CC2)cc1", 640]
]}

Fill in IC50 for each of the 4 compounds listed.
1. CC(C(=O)Nc1ccc(S(N)(=O)=O)cc1)N1CCN(c2cc3c(cc2F)c(=O)c(C(=O)O)cn3C2CC2)CC1 (stereo not given)
2. NS(=O)(=O)c1ccc(NC(=O)CCN2CCN(c3cc4c(cc3F)c(=O)c(C(=O)O)cn4C3CC3)CC2)cc1
3. Cc1cc(NS(=O)(=O)c2ccc(NC(=O)CCN3CCN(c4cc5c(cc4F)c(=O)c(C(=O)O)cn5C4CC4)CC3)cc2)no1
4. O=C(CN1CCN(c2cc3c(cc2F)c(=O)c(C(=O)O)cn3C2CC2)CC1)Nc1ccc(S(=O)(=O)Nc2cncc(Cl)n2)cc1

Reply:
[6660, 600, 3910, 2290]

Fill in IC50 for each of the 4 compounds listed.
1. O=C(CN1CCN(c2cc3c(cc2F)c(=O)c(C(=O)O)cn3C2CC2)CC1)Nc1ccc(S(=O)(=O)Nc2ncccn2)cc1
2. O=C(CN1CCN(c2cc3c(cc2F)c(=O)c(C(=O)O)cn3C2CC2)CC1)Nc1ccc(S(=O)(=O)Nc2cnc3ccccc3n2)cc1
3. Cc1cc(NS(=O)(=O)c2ccc(/N=N/N3CCN(c4cc5c(cc4F)c(=O)c(C(=O)O)cn5C4CC4)CC3)cc2)no1
4. Cc1cc(NS(=O)(=O)c2ccc(NC(=O)CN3CCN(c4cc5c(cc4F)c(=O)c(C(=O)O)cn5C4CC4)CC3)cc2)no1

Reply:
1: 2080; 2: 350; 3: 2580; 4: 4660
